molecular target: Syk (Homo sapiens); assay: High Throughput Syk Biochemical Assay (KinEASE TR-FRET); conditions: TABLE D, 20 μM ATP, 1 μM biotinylated peptide, 0.015 nM Syk, 30 min at room temperature, read-out: IC50
Consider the following molecules and their measured IC50 readings.
observation.type: IC50 (nM)

molecule: COc1ccc(-c2cc3ncn(CF)c3c(O[C@H](C)[C@H]3CNC(=O)C3)n2)cc1OC
observation.type: IC50
meas.value: 2.49

molecule: CCn1ccc(-c2cc(O[C@H](C)[C@H]3CNC(=O)C3)c3scnc3c2)n1
observation.type: IC50
meas.value: 3.36

molecule: C[C@@H](Oc1cc(-c2ccc(N3CCN(C(=O)OC(C)(C)C)CC3)cc2)cc2ncsc12)[C@H]1CNC(=O)C1 (stereo in doubt)
observation.type: IC50
meas.value: 9.04

molecule: Cn1cnc2cc(-c3cnn(C(C)(C)C)c3)nc(O[C@H](CF)[C@H]3CNC(=O)C3)c21
observation.type: IC50
meas.value: 20.1

molecule: COc1ccc(-c2cc3ncn(C)c3c(O[C@H](C)[C@H]3CNC(=O)C3)n2)cc1OC
observation.type: IC50
meas.value: 5.19

molecule: C[C@@H](Oc1nc(-c2ccc(N3CCN(C(=O)OC(C)(C)C)CC3)cc2)cc2ncn(C)c12)[C@H]1CNC(=O)C1
observation.type: IC50
meas.value: 18.3

molecule: C[C@@H](Oc1nc(-c2ccccc2)cc2ncn(C)c12)[C@H]1CNC(=O)C1
observation.type: IC50
meas.value: 33.8

molecule: CC(=O)N1CCN(c2ccc(-c3cc(O[C@H](C)[C@H]4CNC(=O)C4)c4scnc4c3)nc2)CC1 (stereo in doubt)
observation.type: IC50
meas.value: 1.59

molecule: C[C@@H](Oc1nc(-c2cc[nH]c(=O)c2)cc2ncn(C)c12)[C@H]1CNC(=O)C1
observation.type: IC50
meas.value: 97.5

molecule: C[C@@H](Oc1cc(-c2ccc(N3CCOCC3)cc2)cn2nccc12)[C@H]1CNC(=O)C1
observation.type: IC50
meas.value: 7.85

----------
Examples of compounds with documented IC50 follow.
biological target: Syk (Homo sapiens); assay: High Throughput Syk Biochemical Assay (KinEASE TR-FRET); conditions: TABLE D, 20 μM ATP, 1 μM biotinylated peptide, 0.015 nM Syk, 30 min at room temperature, read-out: IC50

compound.smiles: C[C@@H](Oc1nc(-c2ccc(N3CCN(C4COC4)CC3)cc2)cc2ncn(C)c12)[C@H]1CNC(=O)C1
IC50, nM: 8.21

compound.smiles: C[C@@H](Oc1nc(-c2cnn(C(C)(C)C)c2)cc2ncn(C(F)F)c12)[C@H]1CNC(=O)C1
IC50, nM: 1.22

compound.smiles: C[C@@H](Oc1nc(-c2cnn(C(F)F)c2)cc2ncn(C)c12)[C@H]1CNC(=O)C1
IC50, nM: 32.8
